The measured values listed here are drawn from patent EP0194158A2.

# TARGET ENTITY: monoclonal antibody Anti-nicotine 402C10
# ASSAY OVERVIEW: sandwich ELISA, inhibition of binding of monoclonal antibody to solid phase hapten (specificity)
# Parameters: species or system mouse
# CONDITION DESCRIPTION: wells coated with 0.012 ug nicotine-polylysine conjugate; anti-nicotine diluted 1:729,000; total volume 0.1 ml
Think of 10 Nanograms as a floor: if Nanograms required for 50% inhibition stands on it or above, it is 1.0; beneath it, 0.0.

Some solved entries appear below for comparison.
COMPOUND: c1cncc([C@@H]2CCCCN2)c1
TARGET ENTITY: monoclonal antibody Anti-nicotine 402C10
CLASS ASSIGNMENT: 1.0
--
COMPOUND: CN1CCCC1CCO (stereo not drawn)
TARGET ENTITY: monoclonal antibody Anti-nicotine 402C10
CLASS ASSIGNMENT: 0.0
--
COMPOUND: C[N+]1([O-])CCCC1c1cccnc1 (stereo not drawn) [nicotine N'-oxide]
TARGET ENTITY: monoclonal antibody Anti-nicotine 402C10
CLASS ASSIGNMENT: 1.0
--
COMPOUND: CN1CCCC1c1ccc(N)nc1 (stereo not drawn)
TARGET ENTITY: monoclonal antibody Anti-nicotine 402C10
CLASS ASSIGNMENT: 1.0
--
COMPOUND: CN1CCCC1c1ccc(O)nc1 (stereo not drawn) [6-hydroxynicotine]
TARGET ENTITY: monoclonal antibody Anti-nicotine 402C10
CLASS ASSIGNMENT: 0.0
--
COMPOUND: CCN1CCCC1c1cccnc1 (stereo not drawn)
TARGET ENTITY: monoclonal antibody Anti-nicotine 402C10
CLASS ASSIGNMENT: 0.0

Exercise: Could you tell me if the measured Nanograms required for 50% inhibition of c1cncc(C2=NCCC2)c1 reaches 10 Nanograms or more?
Solution: 1.0

Exercise: Could you tell me if the measured Nanograms required for 50% inhibition of CN1CCCC1c1cccnc1N (stereo not drawn) reaches 10 Nanograms or more?
Solution: 1.0

Exercise: Could you tell me if the measured Nanograms required for 50% inhibition of O=NN1CCCC1c1cccnc1 (stereo not drawn) reaches 10 Nanograms or more?
Solution: 1.0

====

# TARGET ENTITY: monoclonal antibody Anti-cotinine 305E5, isotype IgG2bk
# ASSAY OVERVIEW: binding affinity constant K (method of R. Muller)
# Set-up: species or system mouse
# CONDITION DESCRIPTION: value is K multiplied by 10^-8
READOUT: pKd
Hey, just a heads up that pKd is the negative log base 10 of the concentration in molar.

Exercise: pKd lookup needed for CN1C(=O)CC[C@H]1c1cccnc1 [(S)-(-)-cotinine] , thanks.
Solution: 8.75

====

# TARGET ENTITY: monoclonal antibody Anti-nicotine 304A7, isotype IgG1lambda
# CONDITION DESCRIPTION: read-out: K; binding affinity constant; value is K multiplied by 10^-8
READOUT: Kd (nM)
Numeric answer only, unit nM assumed.

Exercise: Kd lookup needed for CN1CCC[C@H]1c1cccnc1 [(S)-(-)-nicotine] , thanks.
Solution: 11.4

====

# TARGET ENTITY: monoclonal antibody Anti-cotinine 309G5, isotype IgG1k
# ASSAY OVERVIEW: binding affinity constant K (method of R. Muller)
# CONDITION DESCRIPTION: value is K multiplied by 10^-8
READOUT: Kd
Put down the number, then write its unit next to it.

Exercise: Kd lookup needed for CN1C(=O)CC[C@H]1c1cccnc1 [(S)-(-)-cotinine] , thanks.
Solution: 1.32 nM

====

# TARGET ENTITY: monoclonal antibody Anti-nicotine 303C5, isotype IgG1lambda
# CONDITION DESCRIPTION: read-out: K; binding affinity constant; value is K multiplied by 10^-8
READOUT: Kd (nM)
Numeric answer only, unit nM assumed.

Exercise: Kd lookup needed for CN1CCC[C@H]1c1cccnc1 [(S)-(-)-nicotine] , thanks.
Solution: 7.14

====

# TARGET ENTITY: monoclonal antibody Anti-nicotine 302G3, isotype IgG1lambda
# CONDITION DESCRIPTION: read-out: K; binding affinity constant; value is K multiplied by 10^-8
READOUT: Kd
Put down the number, then write its unit next to it.

Exercise: Kd lookup needed for CN1CCC[C@H]1c1cccnc1 [(S)-(-)-nicotine] , thanks.
Solution: 6.17 nM

====

# TARGET ENTITY: monoclonal antibody Anti-nicotine 203G3, isotype IgMlambda
# CONDITION DESCRIPTION: read-out: K; binding affinity constant; value is K multiplied by 10^-8
READOUT: Kd
Put down the number, then write its unit next to it.

Exercise: API: value(readout= Kd, system= monoclonal antibody Anti-nicotine 203G3, isotype IgMlambda, query= CN1CCC[C@H]1c1cccnc1 [(S)-(-)-nicotine] )
Solution: 20.8 nM

====

# TARGET ENTITY: monoclonal antibody Anti-nicotine 301C4, isotype IgG1lambda
# CONDITION DESCRIPTION: read-out: K; binding affinity constant; value is K multiplied by 10^-8
READOUT: pKd
Hey, just a heads up that pKd is the negative log base 10 of the concentration in molar.

Exercise: pKd lookup needed for CN1CCC[C@H]1c1cccnc1 [(S)-(-)-nicotine] , thanks.
Solution: 8.01

====

Quick reference: Nanograms required for 50% inhibition of the listed items.
# TARGET ENTITY: monoclonal antibody Anti-cotinine 305E5
# ASSAY OVERVIEW: sandwich ELISA, inhibition of binding of monoclonal antibody to solid phase hapten (specificity)
# Parameters: species or system mouse
# CONDITION DESCRIPTION: wells coated with 0.012 ug cotinine-polylysine conjugate; anti-cotinine diluted 1:729,000; total volume 0.1 ml
Numeric answer only, unit Nanograms assumed.

COMPOUND: C[N+]1([O-])CCCC1c1cccnc1 (stereo not drawn) [nicotine N'-oxide]
ASSAY VALUE: 490

Exercise: API: value(readout= Nanograms required for 50% inhibition, system= monoclonal antibody Anti-cotinine 305E5, query= c1cncc([C@@H]2CCCCN2)c1 )
Solution: 170

Exercise: API: value(readout= Nanograms required for 50% inhibition, system= monoclonal antibody Anti-cotinine 305E5, query= O=C(O)CCC(=O)c1cccnc1 )
Solution: 410

Exercise: API: value(readout= Nanograms required for 50% inhibition, system= monoclonal antibody Anti-cotinine 305E5, query= c1cncc(C2=NCCC2)c1 )
Solution: 220

Exercise: API: value(readout= Nanograms required for 50% inhibition, system= monoclonal antibody Anti-cotinine 305E5, query= O=NN1CCCC1c1cccnc1 (stereo not drawn) )
Solution: 6.5

Exercise: API: value(readout= Nanograms required for 50% inhibition, system= monoclonal antibody Anti-cotinine 305E5, query= CN1C(=O)CC[C@H]1c1cccnc1 [(S)-(-)-cotinine] )
Solution: 0.12

Exercise: API: value(readout= Nanograms required for 50% inhibition, system= monoclonal antibody Anti-cotinine 305E5, query= CN1CCCC1c1ccc(O)nc1 (stereo not drawn) [6-hydroxynicotine] )
Solution: 330

Exercise: API: value(readout= Nanograms required for 50% inhibition, system= monoclonal antibody Anti-cotinine 305E5, query= O=C1CCC(c2cccnc2)N1 (stereo not drawn) )
Solution: 1.6

====

# TARGET ENTITY: monoclonal antibody Anti-cotinine 308C11, isotype IgG1k
# ASSAY OVERVIEW: binding affinity constant K (method of R. Muller)
# CONDITION DESCRIPTION: value is K multiplied by 10^-8
READOUT: pKd
Hey, just a heads up that pKd is the negative log base 10 of the concentration in molar.

Exercise: pKd lookup needed for CN1C(=O)CC[C@H]1c1cccnc1 [(S)-(-)-cotinine] , thanks.
Solution: 8.49

====

# TARGET ENTITY: monoclonal antibody Anti-nicotine 402C10
# ASSAY OVERVIEW: sandwich ELISA, inhibition of binding of monoclonal antibody to solid phase hapten (specificity)
# Set-up: species or system mouse
# CONDITION DESCRIPTION: wells coated with 0.012 ug nicotine-polylysine conjugate; anti-nicotine diluted 1:729,000; total volume 0.1 ml
# Source text: Control values were less than 0.05 absorbance unit.
Quick reference: Nanograms required for 50% inhibition of the listed items.

Below, 2 compounds whose answers are already recorded.
COMPOUND: O=C(O)CCC(=O)c1cccnc1
READOUT: Nanograms required for 50% inhibition
ASSAY VALUE: 1,920 Nanograms
--
COMPOUND: CN1C(=O)CC[C@H]1c1cccnc1 [(S)-(-)-cotinine]
READOUT: Nanograms required for 50% inhibition
ASSAY VALUE: 1,000 Nanograms

Exercise: API: value(readout= Nanograms required for 50% inhibition, system= monoclonal antibody Anti-nicotine 402C10, query= O=C1CCC(c2cccnc2)N1 (stereo not drawn) )
Solution: 10,000 Nanograms

====

# TARGET ENTITY: monoclonal antibody Anti-cotinine 305E5
# ASSAY OVERVIEW: sandwich ELISA, inhibition of binding of monoclonal antibody to solid phase hapten (specificity)
# Set-up: species or system mouse
# CONDITION DESCRIPTION: wells coated with 0.012 ug cotinine-polylysine conjugate; anti-cotinine diluted 1:729,000; total volume 0.1 ml
Quick reference: Nanograms required for 50% inhibition of the listed items.

Below, 3 compounds whose answers are already recorded.
COMPOUND: CCN1CCCC1c1cccnc1 (stereo not shown) [N-ethylnornicotine]
Nanograms required for 50% inhibition: > 1,000 Nanograms

COMPOUND: CN1CCCC1c1ccc(N)nc1 (stereo not shown) [6-aminonicotine]
Nanograms required for 50% inhibition: 8,500 Nanograms

COMPOUND: CN1CCCC1c1cccnc1N (stereo not shown) [2-aminonicotine]
Nanograms required for 50% inhibition: 1,700 Nanograms

Exercise: API: value(readout= Nanograms required for 50% inhibition, system= monoclonal antibody Anti-cotinine 305E5, query= CN1CCCC1CCO (stereo not shown) [1-methyl-2-pyrrolidine ethanol] )
Solution: 6,950 Nanograms
